Origin of the recorded values: patent US20240116985A1

# Target Desc: T1, full-length beta-Catenin (Uniprot ID P35222) (Homo sapiens (Human), UniProt P35222 1-781)
# T1 construct: Used full-length in the fluorescence polarization probe solution (10 nM); also called bCat; B-Catenin
# T1 sequence: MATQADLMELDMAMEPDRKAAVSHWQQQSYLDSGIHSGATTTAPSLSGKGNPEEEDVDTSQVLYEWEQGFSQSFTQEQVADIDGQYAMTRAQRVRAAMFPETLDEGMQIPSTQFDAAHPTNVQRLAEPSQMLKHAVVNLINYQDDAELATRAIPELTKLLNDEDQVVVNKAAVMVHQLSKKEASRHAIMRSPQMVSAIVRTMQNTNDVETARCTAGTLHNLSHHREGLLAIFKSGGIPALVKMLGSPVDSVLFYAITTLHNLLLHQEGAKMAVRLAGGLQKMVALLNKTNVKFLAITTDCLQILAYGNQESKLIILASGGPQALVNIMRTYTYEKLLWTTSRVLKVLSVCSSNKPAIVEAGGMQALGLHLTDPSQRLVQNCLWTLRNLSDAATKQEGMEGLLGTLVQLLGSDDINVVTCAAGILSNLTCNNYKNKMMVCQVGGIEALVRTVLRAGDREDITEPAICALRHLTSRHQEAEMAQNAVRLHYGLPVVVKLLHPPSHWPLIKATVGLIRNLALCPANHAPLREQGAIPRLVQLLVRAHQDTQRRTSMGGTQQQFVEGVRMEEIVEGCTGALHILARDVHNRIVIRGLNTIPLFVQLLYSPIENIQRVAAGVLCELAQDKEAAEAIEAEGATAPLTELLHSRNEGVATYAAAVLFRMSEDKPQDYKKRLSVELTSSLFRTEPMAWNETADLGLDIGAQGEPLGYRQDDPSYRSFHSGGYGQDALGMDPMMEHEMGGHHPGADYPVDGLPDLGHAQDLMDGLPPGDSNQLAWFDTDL
# Assay Explanation: fluorescence polarization competition; displacement of 5FAM-TCF4(10-53) from full-length beta-catenin
# Protocol: The plate was incubated protected from light for 60 minutes at 20° C. prior to read. Reads were performed on a CLARIOstar plate reader (BMG Labtech) in duplicate, and data were fitted to a 1:1 binding model with hill slope using an in-house script. All provided concentrations are final concentrations.
Starred links: 1 amine or outer side, 2 acyl side, 3 side chain; linkers in the order of their positions; H or OH if unused. Positions of bridges follow the written chain, without caps; N, C: chain ends. Non-standard residues stand in square brackets, D forms with d. Primed or numbered codes have the meaning given here. B5(29) = 2-amino-2-(pent-4-en-1-yl)hept-6-enoic acid (2,2-bis(4-pentenyl)glycine), stitching residue bearing both staples, C=CCCCC(CCCC=C)(N[*:1])C(=O)[*:2]; B5(6) = 2-amino-2-(pent-4-en-1-yl)hept-6-enoic acid (bis(4-pentenyl)glycine), stitching residue, C=CCCCC(CCCC=C)(N[*:1])C(=O)[*:2]; Bta = N[C@@H](Cc1csc2ccccc12)C(=O)O; αAllylPro = C=CC[C@@]1(C(=O)O)CCCN1; S8 = C=CCCCCCC[C@](C)(N)C(=O)O; hSer = N[C@@H](CCO)C(=O)O
Quantity: pEC50
Convention used: pEC50 is expressed as -log10 of the molar concentration.

Prompt: Can you look up the measured pEC50 of Ac-[αAllylPro]DA[B5(6)][hSer]EAAFQ[S8]F[Bta]Q-NH2 (staple 1-4, 4-11; not fully specified; printed as Ac-PL3-Asp-Ala-B5-Hse-Glu-Ala-Ala-Phe-Gln-S8-Phe-BztA-Gln-NH2, Stapled peptide composition) [I-496] for me?
Completion: 5.30

Prompt: Can you look up the measured pEC50 of Ac-[αAllylPro]DI[B5(6)]DEAAFN[S8]F[Bta]H-NH2 (staple 1-4, 4-11, Stapled peptide composition) [I-472] for me?
Completion: 7.21

Prompt: Can you look up the measured pEC50 of XDIXDEAAFNXFXQ (not fully specified; Ac-PL3-Asp-aIle-B5-Asp-Glu-Ala-Ala-Phe-Asn-S8-Phe-BztA-Gln-NH2; N-terminal acetyl, C-terminal amide; stapled PL3-B5 and B5-S8, Stapled peptide composition) [I-475] for me?
Completion: 6.99

Prompt: Can you look up the measured pEC50 of Ac-[αAllylPro]DT[B5(29)]DEAAFQ[S8]F[Bta]Q-NH2 (staple 1-4, 4-11, Stapled peptide composition) [I-477] for me?
Completion: 6.92
